molecular target: T1, CTLA4-ECD_Fc, soluble hCTLA4 comprising the extracellular domain of hCTLA4 fused to an Fc fragment (human, UniProt P16410 36-161); experiment: flow cytometry; inhibition of CTLA4-ECD_Fc binding to Raji cells (hB7-1/hB7-2)
T1 construct: extracellular domain; not shown: Fc fragment
T1 sequence (P16410 36-161): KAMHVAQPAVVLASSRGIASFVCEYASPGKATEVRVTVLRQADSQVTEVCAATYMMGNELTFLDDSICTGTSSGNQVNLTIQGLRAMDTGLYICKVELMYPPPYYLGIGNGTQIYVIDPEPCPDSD
Consider the following binders and their measured IC50 readings.
Remember to follow the number with its unit.

anti-hCTLA4 antibody 6E3 (antibody, human IgG1, V domains shown) VH: QVQLVESGGGVVEPGRSLRLSCAASGFTFSSYGMHWVRQAPGKGLEWVAVIWYKTSEKDYADSAKGRFTISRDNSKNTLYLQMNSLRAEDTAVYYCARAGLLGYFDYWGQGTLVTVSS VL: EIVLTQSPGTLSLSPGERATLSCRASQSVTSYLAWYQQKPGQAPRPLIYGVSSRATGIPDRFSGSGSGTDFTLTISRLEPEDFAVYYCQQYGMSPFTFGPGTKVDIK; 14.1 nM

IN: Quick one: give measured IC50 for anti-hCTLA4 antibody 10D4 (antibody, human IgG1, V domains shown, unaltered form; also called Anti-CTLA4 10D4; anti-hCTLA4 #10D4) VH: QVQLVESGGGVVEPGRSLRLSCTASGFTFSSYGMHWVRQAPGKGLEWVAVIWYHPSKKDYADSAKGRFTISRDNSKNTLYLQMNSLRAEDTAVYYCARAGLLGYFDYWGQGTLVTVSS VL: EIVLTQSPGTLSLSPGERATLSCRASQSVTSYLAWYQQKPGQAPRPLIYGVSSRATGIPDRFSGSGSGTDFTLTISRLEPEDFAVYYCQQYGRYPFTFGPGTKVDIK
OUT: 3.3 nM

IN: Give the measured IC50 for anti-hCTLA4 antibody 3G1 (antibody, human IgG1, V domains shown) VH: QVQLVESGGGVVEPGRSLRLSCTASGFTFSSYGMHWVRQAPGKGLEWVAVIWYKSSEKYYADSAKGRFTISRDNSKNTLYLQMNSLRAEDTAVYYCARGGLLGYFDYWGQGTLVTVSS VL: EIVLTQSPGTLSLSPGERATLSCRASQSINSYLAWYQQKPGQAPRPLIYGVSSRATGIPDRFSGSGSGTDFTLTISRLEPEDFAVYYCQQYGMYPFTFGPGTKVDIK
OUT: 3.5 nM

IN: Please report IC50 for the following binder: anti-hCTLA4 antibody 9C4 (antibody, human IgG1, V domains shown) VH: QVQLVESGGGVVEPGRSLRLSCAASGFTFSSYGMHWVRQAPGKGLEWVAVIWYKSSEKDYADSAKGRFTISRDNSKNTLYLQMNSLRAEDTAVYYCARAGLLGYFDYWGQGTLVTVSS VL: EIVLTQSPGTLSLSPGERATLSCRASQSLNSYLAWYQQKPGQAPRPLIYGVSSRATGIPDRFSGSGSGTDFTLTISRLEPEDFAVYYCQQYGIYPFTFGPGTKVDIK
OUT: 15.7 nM

IN: # return recorded IC50 for input anti-hCTLA4 antibody 5B2 (antibody, human IgG1, V domains shown) VH: QVQLVESGGGVVEPGRSLRLSCTASGFTFSSYGMHWVRQAPGKGLEWVAVIWYKSSEKDYADSAKGRFTISRDNSKNTLYLQMNSLRAEDTAVYYCARAGLLGYFDYWGQGTLVTVSS VL: EIVLTQSPGTLSLSPGERATLSCRASQSLSSYLAWYQQKPGQAPRLLIYGVSSRATGIPDRFSGSGSGTDFTLTISRLEPEDFAVYYCQQYGMYPFTFGPGTKVDIK
OUT: 11.5 nM

IN: Note IC50 for the binder shown: anti-hCTLA4 antibody 8B4 (antibody, human IgG1, V domains shown) VH: QVQLVESGGGVVEPGRSLRLSCAASGFTFSSYGMHWVRQAPGKGLEWVAVIWYQPSEKDYADSAKGRFTISRDNSKNTLYLQMNSLRAEDTAVYYCARAGFLGYFDYWGQGTLVTVSS VL: EIVLTQSPGTLSLSPGERATLSCRASQSVNSYLAWYQQKPGQAPRPLIYGVSSRATGIPDRFSGSGSGTDFTLTISRLEPEDFAVYYCQQYGMYPFTFGPGTKVDIK
OUT: 3.8 nM
